Target: T1, CD123-his-biotin抗原 (Homo sapiens (Human), UniProt P26951 19-305, biotin label (site not stated))
T1 construct: Bought from SinoBiological and biotin-labelled; also called CD123-Biotin; CD123抗原; not shown: his tag
T1 sequence: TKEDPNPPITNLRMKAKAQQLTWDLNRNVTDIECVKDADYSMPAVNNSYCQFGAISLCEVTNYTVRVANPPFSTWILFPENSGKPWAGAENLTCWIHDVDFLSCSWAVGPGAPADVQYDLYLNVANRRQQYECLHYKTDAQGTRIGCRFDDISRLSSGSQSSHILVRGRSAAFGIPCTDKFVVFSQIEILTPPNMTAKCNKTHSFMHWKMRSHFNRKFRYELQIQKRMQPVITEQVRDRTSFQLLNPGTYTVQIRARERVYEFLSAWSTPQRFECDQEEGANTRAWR
Assay: BLI (Octet RED96), CD123-Biotin on AR2G sensor, scFv periplasmic extract as analyte
Parameters: unit not given here
PARAMETER: 响应
Answer with a bare number; do not write a unit.

Past entries and their recorded results:
{"BINDER": "3F8 (scFv, V domains shown) VH: QVQLQQPGAELVRPGASVKLSCKASGYTFTQYWMNWVKQRPDQGLEWIGRIDPYDSETHYNQKFKDKAILTVDKSSSTAYMQLSSLTSEDSAVYYCARGISQDFWGQGTTLTVSS VL: DVQITQSPSYLAASPGETITINCRASKSISKDLAWYQEKPGKTNKLLIYSGSTLQSGIPSRFSGSGSGTDFTLTISSLEPEDFAMYYCQQHNKYPYTFGGGTKLEIK", "响应": 0.207}
{"BINDER": "6G9 (scFv, V domains shown) VH: QVQLQQPGAELVRPGASVKLSCKASGYTFTSYWMNWVKQRPDQGLEWIGRIDPYDSETHYNQKFKDKAILTVDKSSSTAYMQLSSLTSEDSAVYYCARGNWDDYWGQGTTLTVSS VL: DVQITQSPSYLAASPGETITINCCASNSINKDLIWYQEKPGKTNKLLIYSGSTLQSGIPSRFSGSGSGTDFTLTISSLEPEDFAMYYCQQHNKYPYTFGGGTKLEIK", "响应": 0.163}

Summary for this binder, 5B1 (scFv, V domains shown) VH: QVQLQQPGAELVRPGASVKLSCKASGYTFTSYWMNWVKQRPDQGLEWIGRIDPYDSETHYNQKFKDKAILTVDKSSSTAYMQLSSLTSEDSAVYYCARGNWDDYWGQGTTLTVSS VL: DVQITQSPSYLAASPGETITINCRASKSISKDLAWYQEKPGKTNKLLIYSGSTLQSGIPSRFSGSGSGTDFTLTISSLEPEDFAMYYCQQHNRYPYTFGGGTKLEIK : 响应 is 0.422

These data points were gathered from patent CN107840889A.
